FYI, the data here is from ChEMBL document CHEMBL3988442.

System: Wolbachia pipientis
assay method text: Anti-Wolbachia Cell-Based Screen
Assay type: functional
Parameters: scale not given: in the data most compounds retested in dose-response had high values
condition parameters: 5 µM
The campaign covered roughly 48,000 compounds. About 13,000 (27%) showed an effect of 50% or more. The list shows a part of the results.
Recorded measurements of Percent Effect, one per entry
// units = %; emit number, no label

Illustrative cases are given below, each with its answer.
compound	Percent Effect (%)
Cc1cc(NC(=O)NCCc2ccccc2)n(C)n1	-5.779
c1cncc(CNc2cccc(OCCN3CCCCC3)c2)c1	1.449
CCSCCC(=O)Nc1ncn(CC(=O)NCc2ccccc2)n1	1.311

Request: Identify measured Percent Effect corresponding to CC(=O)N(CCC(=O)NC1(C#N)CCC1)Cc1ccccc1
Response: -20.67

Request: For the compound CN(C)c1ccc(CCCNC(=O)NCC(O)c2cccs2)cc1 (centres undefined) , give its reported Percent Effect.
Response: 15.76

Request: Return reported Percent Effect. Input compound: COc1cnc(CN2CC(=O)N(c3ccc(C)cc3)CC2C)cc1O (centres undefined)
Response: 8.35

Request: Please give measured Percent Effect of the following entry: CCOc1ccccc1OCCN(C)Cc1ncnn1CC
Response: -5.335

Request: Note down Percent Effect recorded for COc1cccc(N2CCN(C(=O)[C@H](O)C3CCCCC3)CC2=O)c1
Response: -19.32

Request: Provide measured Percent Effect value, entry: COc1cccc(N2CCN(C(=O)CO)CC2=O)c1
Response: 5.099

Request: Name the recorded Percent Effect of the item Cc1cc(C)c2c(N(C)CC3CCN(CC(C)C)C3)ncnc2n1 (centres undefined) in your answer.
Response: 16

Request: Answer with the recorded Percent Effect for the compound listed here: COCCn1/c(=N\C(=O)CN(C)S(C)(=O)=O)sc2cccc(F)c21
Response: 0

Request: Give the value of Percent Effect reported for the following: CN1CC(C(=O)N2CCN(c3cccc(Cl)c3)C(=O)C2)NC1=O (centres undefined)
Response: 98.1

Request: Find the measured Percent Effect of CNC(=O)C1CCN(Cc2nc(-c3ccc(SC)cc3)oc2C)C1 (centres undefined) and report it.
Response: 1.342

Request: // fetch Percent Effect given entry N#Cc1ccc(S(=O)(=O)N2CC(CC(=O)O)c3ccccc32)cc1 (centres undefined)
Response: -12.53

Request: For the compound Cc1ccc(CC(=O)N2CC[C@@H]3NC(=O)CC[C@@H]32)cc1 , give its reported Percent Effect.
Response: -5.727

Request: For the compound COc1ccc(N2CCN(C(=O)CCCc3cn[nH]c3)CC2=O)cc1 , give its measured Percent Effect value.
Response: -15.55

====

Reported Percent Effect is given for each of the following compounds.
System: Wolbachia pipientis
assay method text: Anti-Wolbachia Cell-Based Screen
Assay type: functional
Design: scale not given: in the data most compounds retested in dose-response had high values
condition parameters: 5 µM
Screen size: about 48,000 compounds; about 13,000 (27%) showed an effect of 50% or more. Some of the results follow.
Record the value in %, omitting the unit from your answer.

compound	Percent Effect / %
CCC1(c2ccc(NS(=O)(=O)N(C)C)cc2)CCC(=O)NC1=O (stereo not drawn)	138.3

Request: Retrieve Percent Effect measured for CN(Cc1cccs1)C(=O)c1ccc(=O)n(C)c1 and print it.
Response: 1.128

Request: Indicate the recorded Percent Effect value for this compound: O=C(c1cccc2c1OCO2)N1CCCC(n2ccnc2)C1 (stereo not drawn)
Response: 115.9

Request: Supply recorded Percent Effect for CN(C)C(=O)c1nc2c(s1)CCCN2Cc1ccccc1 here.
Response: -4.503

Request: State its Percent Effect for this compound: CC(Cn1cncn1)NC(=O)Nc1ccc(COC2CCCC2)cc1 (stereo not drawn)
Response: -11.48

Request: # return recorded Percent Effect for input CCc1nc(CN2CCN(c3ncnc4cc(F)ccc34)CC2)no1
Response: -16.98

Request: Return the recorded Percent Effect value; entry: Cn1cc(CN2CCCC(CCc3c(F)cccc3F)C2)cn1 (stereo not drawn)
Response: 4.691

Request: Look up and state reported Percent Effect for CC(C)N1CCCn2nc(C(=O)NCc3ccccc3F)cc2C1
Response: -19.91

Request: Please report the measured Percent Effect for O=C1COC2(COCCN(c3cnccn3)C2)CN1c1cccc(F)c1 (stereo not drawn)
Response: -3.492

====

Tested on: Wolbachia pipientis
assay method text: Anti-Wolbachia Cell-Based Screen
Type: functional
Parameters: scale not given: in the data most compounds retested in dose-response had high values
condition parameters: 5 µM
The whole screen tested about 48,000 compounds, of which about 13,000 (27%) showed an effect of 50% or more. The list shows a part of the results.
Percent Effect for assorted molecules
Write down the numeric answer in % and omit the unit.

Field: example entries. Status: answers known.
molecule	Percent Effect [%]
Cc1ccc(C(=O)N(C)Cc2cc(Br)cs2)cn1	108.4
Cc1n[nH]c(C)c1C1CCCN1C(=O)c1coc(Br)c1 (centres undefined)	4.835

Request: Entry CS(=O)(=O)CCN1CCN(c2ccc(Cl)cn2)CC1 needs its Percent Effect filled in; supply it.
Response: -5.169

Request: Quote Percent Effect reported for Cc1cc(CN(C)C(=O)c2ccc(C(F)(F)F)nc2)no1 please.
Response: 4.429

Request: Specify Percent Effect for CN(Cc1cc(Br)cn1C)C(=O)c1cccnc1 and stop.
Response: -11.61

Request: Output Percent Effect of COc1cc(N2C[C@@H](C)[C@](O)(C3CC3)C2)ncn1
Response: -12.89

Request: Please supply the value of reported Percent Effect for the item Cc1ocnc1C(=O)N1CCC2(CC1)c1nc[nH]c1CCN2CC(C)C
Response: 6.768

====

Tested on: Wolbachia pipientis
assay method text: Anti-Wolbachia Cell-Based Screen
Format: functional
Design: scale not given: in the data most compounds retested in dose-response had high values
condition parameters: 5 µM
Out of some 48,000 compounds screened, about 13,000 (27%) showed an effect of 50% or more. The list shows a part of the results.
measurement type: Percent Effect (%)
Lab book: enter the figure in %, no units written.

Sample answers from the record:
compound	Percent Effect / %
CCN(CCn1cccn1)C(=O)CN1C(=O)OC[C@@H]1c1ccccc1	-1.306
O=C(c1ccco1)N1CC[C@@H]2[C@H]1CCC(=O)N2c1ccccc1	9.276
CC(C)CN1CCCn2nc(CNC(=O)CCCc3cn[nH]c3)cc2C1	-2.664
CN1CC(C(=O)NCCc2ccn(-c3ccc(F)cc3)n2)CC1=O (stereo not drawn)	-45.08
CNS(=O)(=O)c1cccc(CNc2nccc(C(F)(F)F)n2)c1	-7.88

Request: Specify measured Percent Effect for O=C(CCC1CCN(Cc2ccncc2)CC1)Nc1ccccc1Cl .
Response: -2.559

Request: Give reported Percent Effect value for CC(=O)c1cc(CN2C[C@H]3CC[C@@H]2CN(S(=O)(=O)N(C)C)C3)cs1
Response: -15.69

Request: Give the measured Percent Effect for O=C(c1ccco1)N(CC(F)(F)F)C1CCOCC1
Response: -3.164

Request: Read the entry Nc1cccc(-c2cccc3ccnn23)n1 and write its reported Percent Effect.
Response: 9.414

Request: Kindly indicate its recorded Percent Effect. Item: N#Cc1cnc2ccccc2c1N1CCN(C(=O)C2CCC2)CC1
Response: 4.022

Request: Respond only with Percent Effect recorded for CCN(CC)C(=O)CCCNC(=O)c1csc(NC2CC2)n1
Response: -10.76

Request: Name the recorded Percent Effect of the item CC(=O)N1CCCC(C(=O)NCCc2nc(Cc3ccccc3)no2)C1 (stereo not drawn) in your answer.
Response: -1.107

Request: Hello, please tell me recorded Percent Effect for this one: CC(Cc1ccco1)NC(=O)Nc1ccc(S(C)(=O)=O)nc1 (stereo not drawn)
Response: -6.327

Request: For the compound N#Cc1ccccc1C(=O)N1C[C@H]2CC[C@@H]1CN(c1ncccn1)C2 , give its measured Percent Effect value.
Response: -29.72

Request: Respond only with Percent Effect recorded for NC(=O)c1ccc(N2CCCCC2)c(NC(=O)c2cncc(Br)c2)c1
Response: 8.346

Request: Quote Percent Effect reported for N#Cc1ccc(CNC(=O)NCCNC(=O)C2CCCC2)c(F)c1 please.
Response: 4.725

====

List of Percent Effect values.
System: Wolbachia pipientis
assay method text: Anti-Wolbachia Cell-Based Screen
Format: functional
Design: scale not given: in the data most compounds retested in dose-response had high values
condition parameters: 5 µM
The campaign covered roughly 48,000 compounds. About 13,000 (27%) showed an effect of 50% or more. The list shows a part of the results.
Express your answer in %, writing the number without its unit.

Worked examples follow.
compound	Percent Effect, %
COc1ncnc(N)c1CNCCOc1ccccc1Cl	-0.9521
O=C(c1cnc2n1CCCC2)N1CCCC1	17.49
O=C(NCc1cnn2cccnc12)C1CC(=O)N(Cc2cccnc2)C1 (stereo not given)	-5.518
CC(=O)N1CCC2(CC1)C(=O)N(C)c1ccc(F)cc12	-20.1
CNC(=O)c1cccc(C2CNCCN2C(C)=O)c1 (stereo not given)	-19.14

Request: Recall and state the measured Percent Effect for Cc1cccc(C(=O)NC(C(=O)NCc2ccc(O)nc2)C(C)C)c1 (stereo not given) .
Response: 103

Request: Check the records and state Percent Effect for Cc1nccn1-c1ccc(CNC(=O)c2ccc(O)nc2)cn1
Response: -3.999

Request: Given the compound CC(c1ccco1)N(C(=O)NCc1ccon1)C1CC1 (stereo not given) , write its reported Percent Effect.
Response: 5.216

Request: Assign Percent Effect to the following record: COCCn1cc(C(=O)N2CCCC2c2cccc(F)c2)ccc1=O (stereo not given)
Response: 1.276

Request: Report measured Percent Effect; entry is CCCS(=O)(=O)NCC1CCOc2ccccc2C1 (stereo not given)
Response: -3.198

Request: Quickly give me recorded Percent Effect for Cc1ccc2c(c1)C1(CCN(C(N)=O)CC1)CN2C(=O)N(C)C
Response: 10.3

Request: Please report Percent Effect for the following compound: Cc1ccc2c(c1)C1(CCN(C(N)=O)CC1)CN2CC1CC1
Response: 104

Request: Please report the measured Percent Effect for CC(C)C(NC(=O)Cc1ccccc1)C(=O)NCc1ccc(O)nc1 (stereo not given)
Response: 106

Request: Indicate the recorded Percent Effect value for this compound: CC(=O)N1CCC2(CC1)CN(CC1CC1)c1ccc(F)cc12
Response: 110.5

Request: Report measured Percent Effect; entry is CCc1[nH]c2c(CNc3nc(C)cc(NC)n3)cc(C)cc2c1C
Response: -10.73

Request: Report Percent Effect for COc1ncnc(N)c1CNCC(C)Oc1ccccc1Cl (stereo not given)
Response: -1.664

Request: Fill in reported Percent Effect for this entry: CNC(=O)c1cccc(C2CNCCN2C(=O)c2ccn(C)n2)c1 (stereo not given)
Response: 140.8

Request: Write down Percent Effect measured for item CCCN1CCN(C(=O)c2cccnc2-n2cncn2)CC1
Response: 5.341

Request: Determine from records and report Percent Effect for COc1ncnc(N)c1CNCCc1ccc(-n2cccn2)cc1
Response: 93.72

Request: For CN(C)C(=O)N1CC2(CCN(CC3CC3)CC2)c2cc(F)ccc21.O=C(O)C(F)(F)F , write its Percent Effect.
Response: -28.12

Request: Supply measured Percent Effect of COCC(=O)N1CCC2(CC1)CN(CC1CC1)c1ccc(F)cc12 in your reply.
Response: 102.5

Request: Input CCN(CC)CCN(CC(C)C)c1cc(C(F)(F)F)nc2ncnn12 , output reported Percent Effect.
Response: -0.1585

Request: Report measured Percent Effect; entry is CC(C)Cn1cncc1CNC(=O)c1cccc(CC2CCNCC2)c1
Response: 4.276

Request: Provide Percent Effect value for the following compound: CC(=O)N1CCC2(CC1)CN(C(C)C)c1ccc(F)cc12
Response: 93.83

Request: Identify measured Percent Effect corresponding to CNC(=O)NC(=O)CN1CCC(c2cccc(F)c2)C1 (stereo not given)
Response: -6.233
